Test: in vivo
Settings: female, New Zealand white, rabbit, in vivo, iv, Serum concentration
property: concentration at 671.83 h (nM)
# number only, unit nM dropped from output

structure-notation	concentration at 671.83 h [nM]
ClC(Cl)=C(c1ccc(Cl)cc1)c1ccc(Cl)cc1	3.7

With those in mind, consider the next compound.
// sample Clc1c(Cl)c(Cl)c(Cl)c(Cl)c1Cl , its concentration at 671.83 h was 2.7

###

Test: Nonlinear mixed effect (NLME) compartmental modeling of merged IV and oral serum concentrations
Conditions: female, New Zealand white, rabbit, in vivo
property: MRT (h)
Provide the reading as a plain figure in h.

compound	MRT / h
O=C(O)C(F)(F)C(F)(F)C(F)(F)C(F)(F)C(F)(F)C(F)(F)C(F)(F)F [PFOA, perfluorooctanoic acid]	25

// MRT value for Brc1ccc(Oc2ccc(Br)cc2Br)c(Br)c1 [BDE-47, 2,2′,4,4′-tetrabromodiphenyl ether] : 133

compound Cl[C@H]1[C@H](Cl)[C@@H](Cl)[C@H](Cl)[C@@H](Cl)[C@@H]1Cl [β-HCH, β-hexachlorocyclohexane] , MRT observed: 379

Lab note: ClC(Cl)=C(c1ccc(Cl)cc1)c1ccc(Cl)cc1 [pp′DDE] gave MRT of 261
